- system: Syk kinase (Homo sapiens)
- Construct: purchased
- procedureSummary: Syk kinase inhibition, Caliper LabChip off-chip mobility-shift kinase assay
- Type: biochemical
- conditionParameters: read-out: Syk Enzyme IC50
measuredEndpoint: IC50 (nM)

Record excerpt, results attached:
>>> val("COc1cncc(-c2cc3cc[nH]c(=O)c3c(Nc3ccc(C4CCN(CCC(=O)N(C)C)CC4)c(C)c3)n2)n1")
38
>>> val("O=C(N1CC2CC(C1)c1cc(Nc3nc(-c4cnccn4)cc4cc[nH]c(=O)c34)ccc12)C(F)(F)F (centres unmarked)")
2500
>>> val("Cc1ccnc(Nc2cc3ccn(C)c(=O)c3c(N[C@@H](C)CO)n2)c1")
37
>>> val("Cc1ccnc(Nc2cc3cc[nH]c(=O)c3c(N3CCCC3)n2)c1")
554
>>> val("CC(=O)N1CCC(c2ccc(Nc3nc(Nc4cc(C)ccn4)cc4ccn(C)c(=O)c34)cc2)CC1")
763
>>> val("Cc1cc(Nc2nc(Nc3ccc(S(N)(=O)=O)cn3)cc3cc[nH]c(=O)c23)ccc1C1CCN(C2CC2)CC1")
61
>>> val("O=c1[nH]ccc2cc(Nc3cnccn3)nc(Nc3ccc(N4CCOCC4)cc3)c12")
100
>>> val("CCn1ccc2cc(Nc3cc(Cl)ccn3)nc(N[C@H]3CC[C@@H](O)CC3)c2c1=O")
26

A. COc1ncc(-c2cc3cc[nH]c(=O)c3c(Nc3ccc(CCN4CCCN(C)CC4)cc3)n2)cn1
B. CC(C)Nc1nc(Nc2cc(Cl)ccn2)cc2cc[nH]c(=O)c12
[Q] In terms of reported IC50, does A or B have the smaller number? Kindly state the label of the option you pick.
[A] B

a. Cc1ccnc(Nc2cc3ccn(C)c(=O)c3c(NC(C)(C)C)n2)c1
b. CNC(=O)C(C)N1CCC(c2ccc(Nc3nc(-c4cncc(OC)n4)cc4cc[nH]c(=O)c34)cc2C)CC1 (centres unmarked)
[Q] Lab note: check whether a or b has the lower measured IC50. # answer = label of selected item
[A] b

Numbers sourced from patent US20110053897A1.
